PROCEDURE_SUMMARY: qHTS assay to identify small molecule agonists of the TGF-beta/Smad signaling pathway - cell viability counter screen (AID 1346829); also: nearly all actives have a fitted effect of over 45% in size
CONDITION_SET: SBE-bla HEK293T viability, CellTiter-Glo luminescence, 5 h; series mostly up to 76.8 µM
Results filed as inconclusive are left out. Calls of active or inactive are those of the source. Calls follow the shape of the dose curve; as a rule, active = well fitted cell-killing curve with a large enough effect in the repeat runs; inconclusive = weak or mixed curves, or effect the other way; inactive = flat fitted curve, though single readings scatter.
Give one outcome, nothing more. List: yes (active), no (inactive)

(Q) How did this test come out for `CCOC(=O)CC(=O)CCl` ?
(A) no

(Q) How did this test come out for `C=CC(=O)OCCCCOC(=O)C=C` ?
(A) no

(Q) How did this test come out for `Nc1ccc(Cc2ccc(N)c(Cl)c2)cc1Cl` ?
(A) no

(Q) How did this test come out for CCCCCCCCCCCCCC[P+](CCCCCC)(CCCCCC)CCCCCC (tested in a mixture with another compound) ?
(A) yes

(Q) How did this test come out for `CC(=O)c1ccc(-c2ccccc2)cc1` ?
(A) no

(Q) How did this test come out for `Oc1ccc(C2(c3ccc(O)cc3)CCCCC2)cc1` ?
(A) no

(Q) How did this test come out for BrCC(Br)c1ccccc1 (configuration not stated) ?
(A) no
